Test system: NCI-H1299
assay_procedure: Cytotoxicity against human NCI-H1299 cells assessed as inhibition of cell proliferation measured after 48 hrs by MTT assay
Type: functional, cell-based
condition_description: NCI-H1299, 48 h
pIC50: −log10 of the molar value.
Rule: pIC50 under 6 gives not met, otherwise met.

Would you please look over these solved cases?
CC(C)[C@]12O[C@H]1[C@@H]1O[C@]13[C@]1(O[C@H]1C[C@H]1C4=C(CC[C@@]13C)C(=O)OC4)[C@@H]2OC(=O)CCCCBr: met
CC(C)[C@]12O[C@H]1[C@@H]1O[C@]13[C@]1(O[C@H]1C[C@H]1C4=C(CC[C@@]13C)C(=O)OC4)[C@@H]2OC(=O)CCCCCBr: met
CCCCCCCCCCC(=O)O[C@@H]1[C@@]2(C(C)C)O[C@H]2[C@@H]2O[C@]23[C@]12O[C@H]2C[C@H]1C2=C(CC[C@@]13C)C(=O)OC2: met
CC(C)[C@]12O[C@H]1[C@@H]1O[C@]13[C@]1(O[C@H]1C[C@H]1C4=C(CC[C@@]13C)C(=O)OC4)[C@@H]2OC(=O)CCCC[P+](c1ccccc1)(c1ccccc1)c1ccccc1.[Br-]: not met

Consider the record given below.
Query block: Determine whether this compound has pIC50 no lower than 6: CCCCCCC(=O)O[C@@H]1[C@@]2(C(C)C)O[C@H]2[C@@H]2O[C@]23[C@]12O[C@H]2C[C@H]1C2=C(CC[C@@]13C)C(=O)OC2
Result block: met
